assay: Kinetic aqueous solubility by CAD; format: physicochemical; conditions: aqueous medium, kinetic from dmso stock, high-throughput CAD
Assignment: determine reported solubility for the given molecules.
Give bare numbers, in µM.

>>> experimental_result("COc1ccc(N2C(=O)c3[nH]nc(CC(C)C)c3C2c2ccccc2OC)cc1F (stereo not shown)")
43
>>> experimental_result("COc1ccc(N2C(=O)c3[nH]nc(CC(C)C)c3C2c2ccc(F)cc2C)cc1F (stereo not shown)")
35
>>> experimental_result("Cc1cc(F)ccc1C1c2c(CC(C)C)n[nH]c2C(=O)N1c1ccc(N(C)C)cc1 (stereo not shown)")
27
>>> experimental_result("CC(C)Cc1n[nH]c2c1C(c1ccccc1Cl)N(c1ccc3c(c1)OCO3)C2=O (stereo not shown)")
35
>>> experimental_result("Cc1cc(F)ccc1C1c2c(CC(C)C)n[nH]c2C(=O)N1c1ccc2c(c1)OCO2 (stereo not shown)")
46
>>> experimental_result("COc1cc(F)ccc1C1c2c(CC(C)C)n[nH]c2C(=O)N1c1ccc(N(C)C)cc1 (stereo not shown)")
45
>>> experimental_result("COc1ccccc1C1c2c(CC(C)C)n[nH]c2C(=O)N1c1ccc(N(C)C)cc1 (stereo not shown)")
66

Shifting focus to the molecule that follows.
Please look up its solubility: COc1ccc(N2C(=O)c3[nH]nc(CC(C)C)c3C2c2ccccc2OC)cn1 (stereo not shown) 176

* * *

system: L. donovani intracellular amastigotes in B10R cells; experiment: UCSD L. donovani infection assay (Assay Conditions D); type: cell-based; settings: B10R cells
assay_metric: L. donovani amastigotes EC75 (μM, B10R cells) (µM)
Answers are plain numbers, in µM.

>>> experimental_result("Cc1ccc(N2C(=O)c3[nH]nc(CC(C)C)c3C2c2ccc(F)cc2Br)cn1 (stereo not shown)")
1.0

Shifting focus to the compound that follows.
Please look up its L. donovani amastigotes EC75 (μM, B10R cells): COc1ccc(N2C(=O)c3[nH]nc(CC(C)C)c3C2c2ccccc2F)cn1 (stereo not shown) 4.9

* * *

tested on: L. donovani intracellular amastigotes infecting THP-1 macrophages; test: GSK intramacrophage L. donovani assay (LD AMMAC, inMac; Assay Conditions C); type: cell-based; conditions: Leishmania donovani; values marked c: THP-1 cells; read-out: L. donovani amastigotes EC50 (μM, THP-1 or B10R cells)
Assignment: determine reported EC50 for the given molecules.

>>> experimental_result("CC(C)Cc1n[nH]c2c1C(c1cccc(C(F)(F)F)c1)N(c1ccc(-n3ccnc3)cc1)C2=O (stereo not drawn)")
"≥ 50.1 µM"
>>> experimental_result("CC(=O)OCC(CO)N1C(=O)c2[nH]nc(CC(C)C)c2C1c1ccc(F)cc1 (stereo not drawn)")
"≥ 50.1 µM"

Please look up its EC50: CC(C)Cc1n[nH]c2c1C(c1ccc(F)cc1)N(CC(C)(CO)CO)C2=O (stereo not drawn) ≥ 50.1 µM

* * *

Assignment: determine reported CC50 for the given compounds.
test: GSK inMac assay, host cell toxicity readout (LD MAC); format: cell-based, human; conditions: human; footnote c; read-out: THP-1 Host Cell CC50

Past entries and their recorded results:
>>> experimental_result("COc1ccc(N2C(=O)c3[nH]nc(CC(C)C)c3C2c2ccc(F)cc2OC)cn1 (stereo not shown) [CMLD011574]")
"> 20 µM"
>>> experimental_result("COc1ccc(N2C(=O)c3[nH]nc(CC(C)C)c3C2c2cccs2)cc1 (stereo not shown) [CMLD011110]")
"> 50 µM"
>>> experimental_result("CC(C)Cc1n[nH]c2c1C(c1ccc(F)cc1)N(c1ccc3ncnn3c1)C2=O (stereo not shown) [CMLD010888]")
"> 50 µM"

Please look up its CC50: CC(C)Cc1n[nH]c2c1C(c1ccc(F)cc1)N(c1cccc(C#N)c1)C2=O (stereo not shown) [BUCMD00806] > 50 µM
